The values you see were collected from ChEMBL document CHEMBL4014327.

system: Rattus norvegicus; test: Plasma clearance in Wistar Han rat at 1 mg/kg, iv administered as single dose; format: ADME, organism-based; conditions: in vivo
readoutName: clearance

// sample CC[C@@H]1[C@H](F)C(=O)N[C@@H]1COc1nccc2cc(C(N)=O)c(OC)cc12 , its clearance was 56 mL/min/kg

====

test system: Cynomolgus monkey; experiment: Plasma clearance in cynomolgus monkey at 1 mg/kg, iv administered as single dose; format: ADME, organism-based, Macaca fascicularis; conditions: in vivo
readoutName: clearance (mL/min/kg)
Report the value in mL/min/kg with no unit label.

For reference, reported clearance for CC[C@@H]1[C@H](F)C(=O)N[C@@H]1COc1nccc2cc(C(N)=O)c(OC)cc12 stands at 10
